system: enterococci; assay: Minimum inhibitory concentration, microdilution broth method, enterococci; assay type: cell-based; conditions: Enterococcus faecalis, E. faecalis GC 4555; Mueller-Hinton broth, 18-22 hours at 35° C.; read-out: MIC E. faecalis GC 4555

COMPOUND_SMILES: O=C1O/C(=C\c2ccc(N3CCOCC3)c3ccccc23)C(O)=C1c1cc(Cl)cc(Cl)c1
READOUT_QUALIFIER: =
MIC, µg/mL: 32
--
COMPOUND_SMILES: O=C1O/C(=C\c2cc(C(F)(F)F)ccc2Cl)C(O)=C1c1ccc(-c2ccccc2)c(F)c1
READOUT_QUALIFIER: =
MIC, µg/mL: 4
--
COMPOUND_SMILES: COc1cccc(C2=C(O)/C(=C/c3cccc4ccccc34)OC2=O)c1
READOUT_QUALIFIER: >
MIC, µg/mL: 128
--
COMPOUND_SMILES: O=Cc1cccc(C2=C(O)/C(=C/c3cccc4ccccc34)OC2=O)c1
READOUT_QUALIFIER: >
MIC, µg/mL: 128
--
COMPOUND_SMILES: O=C1O/C(=C\c2cc(C(F)(F)F)ccc2F)C(O)=C1c1ccc(-c2ccccc2)c(F)c1
READOUT_QUALIFIER: =
MIC, µg/mL: 2
